Where these numbers come from: patent US20100286186A1

# assay_text: Stability of meptazinol dicarboxylate bridged amino acid prodrugs in simulated gastric and intestinal juice and pH 7.4 buffer
# Format: physicochemical
# protocol_conditions: simulated intestinal fluid, 2 h
assay_metric: 2 h stability in simulated intestinal fluid (37° C.), Conversion to meptazinol (%)
Reply numerically in %, unit not repeated.

- molecule: "CCC1(c2cccc(OC(=O)C=CC(=O)Nc3ccc(C(=O)O)cc3)c2)CCCCN(C)C1 (stereo not drawn) [Meptazinol [fumaryl-PABA] ester]"
  numeric_value: 6
- molecule: "CCC1(c2cccc(OC(=O)C(C)(C)CC(=O)N[C@H](C(=O)O)C(C)C)c2)CCCCN(C)C1 (stereo partly drawn)"
  numeric_value: 3

Okay, now this molecule:
Just so you know, measured 2 h stability in simulated intestinal fluid (37° C.), Conversion to meptazinol for CCC1(c2cccc(OC(=O)CCCC(=O)Nc3ccc(C(=O)O)cc3)c2)CCCCN(C)C1 (stereo not drawn) [Meptazinol [glutaryl-PABA] ester] came out at 6

---

# assay_text: Comparative pharmacokinetics of oxycodone after oral administration to female Sprague Dawley rats
# protocol_conditions: female, Sprague Dawley, rat, plasma, po, 10 mg oxycodone free base equivalents/kg, Tmax of intact prodrug, oral prodrug, median
assay_metric: Tmax (min)
Reply numerically in min, unit not repeated.

Just so you know, measured Tmax for COc1ccc2c3c1O[C@H]1C(OC(=O)CCC(=O)NC(C(=O)O)C(C)C)=CC[C@@]4(O)[C@@H](C2)N(C)CC[C@]314 (stereo in doubt) came out at 22.5

---

Form field: Simulated gastric fluid (pH 1.1): % remaining after 2 h/37° C. (one value per entry).
# assay_text: In vitro stability of dicarboxylate amino acid ester prodrugs in simulated gastric and intestinal juice, distilled water and pH 10 buffer (HPLC)
# protocol_conditions: pH 1.1, 2 h, 37° C.
Reply numerically in %, unit not repeated.

Known Simulated gastric fluid (pH 1.1): % remaining after 2 h/37° C. results, listed for orientation:
- compound: "CC[C@H](C)[C@H](NC(=O)CCCC(=O)OC1=CC[C@@]2(O)[C@H]3Cc4ccc(OC)c5c4[C@@]2(CCN3C)[C@H]1O5)C(=O)O [Oxycodone-Glutaryl-Ile Enol Ester]"
  numeric_value: 98
- compound: "CC[C@H](C)[C@H](NC(=O)CCC(=O)OC1=CC[C@@]2(O)[C@H]3Cc4ccc(OC)c5c4[C@@]2(CCN3C)[C@H]1O5)C(=O)O [Oxycodone-Succinyl-Ile Enol Ester]"
  numeric_value: 98

Okay, now this compound:
Just so you know, measured Simulated gastric fluid (pH 1.1): % remaining after 2 h/37° C. for COc1ccc2c3c1O[C@H]1C(OC(=O)CCC(=O)N[C@@H](Cc4ccccc4)C(=O)O)=CC[C@@]4(O)[C@@H](C2)N(C)CC[C@]314 [Oxycodone-Succinyl-Phe Enol Ester] came out at 99

---

# assay_text: Comparative oral bioavailability of oxycodone from various dicarboxylate bridged amino acid prodrugs in dogs (nine-way crossover)
# Assay type: in vivo, dog
# protocol_conditions: 1 mg/kg oxycodone free base
Lab note: compare F % (absolute oral bioavailability of oxycodone) against 40%. Equal or greater, write YES. Smaller, write NO.

A selection of reference data follows.
- compound: "COc1ccc2c3c1OC1C(OC(=O)CCC(=O)N[C@@H](CCSC)C(=O)O)=CC[C@@]4(O)[C@@H](C2)N(C)CC[C@]314 (some centres unmarked)"
  answer_label: "YES"
- compound: "CC[C@H](C)[C@H](NC(=O)CCC(=O)OC1=CC[C@@]2(O)[C@H]3Cc4ccc(OC)c5c4[C@@]2(CCN3C)[C@H]1O5)C(=O)O"
  answer_label: "NO"
- compound: "COc1ccc2c3c1O[C@H]1C(OC(=O)CCC(=O)N4CCC[C@H]4C(=O)O)=CC[C@@]4(O)[C@@H](C2)N(C)CC[C@]314"
  answer_label: "NO"

Here's the next entry for you.
**Query** State whether the measured F % (absolute oral bioavailability of oxycodone) reaches 40%, counting equality as reaching it, for "CC[C@H](C)[C@H](NC(=O)CCCC(=O)OC1=CC[C@@]2(O)[C@H]3Cc4ccc(OC)c5c4[C@@]2(CCN3C)[C@H]1O5)C(=O)O"
**Result** NO
